- TESTED ON: c-Myc/Max/Ebox DNA (Homo sapiens, UniProt P01106)
- Construct: his6 (cleaved yes)
- Sequence (P01106 whole entry): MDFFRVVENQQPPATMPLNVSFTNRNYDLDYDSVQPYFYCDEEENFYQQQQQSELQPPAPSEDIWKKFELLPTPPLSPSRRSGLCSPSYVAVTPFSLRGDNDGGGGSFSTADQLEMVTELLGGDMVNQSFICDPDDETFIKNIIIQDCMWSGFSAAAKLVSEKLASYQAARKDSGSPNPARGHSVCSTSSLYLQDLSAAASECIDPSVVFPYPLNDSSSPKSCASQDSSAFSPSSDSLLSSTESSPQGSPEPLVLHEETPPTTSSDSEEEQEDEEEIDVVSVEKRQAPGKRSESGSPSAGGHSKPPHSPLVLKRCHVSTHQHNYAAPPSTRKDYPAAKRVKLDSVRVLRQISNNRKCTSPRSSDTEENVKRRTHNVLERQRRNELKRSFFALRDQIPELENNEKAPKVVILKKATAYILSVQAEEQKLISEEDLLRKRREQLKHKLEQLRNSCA
- ASSAY TEXT: c-Myc/Max/Ebox DNA AlphaScreen Assay
- Assay type: binding
- MEASUREMENT CONDITIONS: Table 3, compounds of FIG. 2; calculated IC50 class
Recorded IC50 values for a group of molecules are listed next.

Study these solved cases before continuing.
MOLECULE	TESTED ON	IC50
CC(=O)Nc1sc2c(c1-c1nc3cc(F)ccc3s1)CCNC2 [Compound 203]	c-Myc/Max/Ebox DNA (Homo sapiens, UniProt P01106)	1 to 10 µM
CC(=O)Nc1sc2c(c1-c1nc3ccccc3s1)C(F)CN(C(C)C)C2 (centres unmarked) [Compound 220]	c-Myc/Max/Ebox DNA (Homo sapiens, UniProt P01106)	1 to 10 µM
CC(=O)Nc1sc2c(c1-c1nc3ccccc3s1)CCC(NCc1ccncc1)C2 (centres unmarked) [Compound 226]	c-Myc/Max/Ebox DNA (Homo sapiens, UniProt P01106)	> 10 µM
CC(=O)Nc1sc2c(c1-c1nc3ccccc3s1)CCC(N)C2 (centres unmarked) [Compound 221]	c-Myc/Max/Ebox DNA (Homo sapiens, UniProt P01106)	> 10 µM

// sample CC(=O)Nc1sc2c(c1-c1nc3ccccc3s1)C[C@H](C)N[C@@H]2C [Compound 219] , its IC50 was 1 to 10 µM

* * *

# pIC50 per record follows
- TESTED ON: c-Myc/Max/Ebox DNA (Homo sapiens, UniProt P01106)
- Construct: his6 (cleaved yes)
- ASSAY TEXT: c-Myc/Max/Ebox DNA AlphaScreen Assay
- Format: binding
- MEASUREMENT CONDITIONS: Table 2, compounds of FIG. 1; calculated IC50 class
- Method: Compounds of the invention were assayed for c-Myc/Max/EBox activity as described in the following protocol. Human his6-c-Myc and his6-Max were used with biotinylated DNA containing a single Ebox sequence (biotin[…]) purchased from MWG Operon. Free c-Myc was generated from his6-c-Myc through thrombin cleavage of the his6 tag. […] AlphaScreen measurements were performed on an Envision plate reader (PerkinElmer) utilizing the manufacturer's protocol. […]
pIC50: −log10 of the molar value. Structures can show the parent of a compound that is named as a salt.

COMPOUND	EXPERIMENTAL READOUT	REPORTED VALUE
Cc1cccc2oc(-c3c(NC(=O)CCNC(C)C)sc4c3CCNC4)nc12 [Compound 311, dihydrochloride]	pIC50	6.00 to 6.52
CC(C)NCCC(=O)Nc1sc2c(c1-c1nc3cc(C(=O)Nc4cccnc4)ccc3s1)CCNC2 [Compound 510]	pIC50	6.00 to 6.52
COCCNCCC(=O)Nc1sc2c(c1-c1nc3cc(-c4ccncc4)ccc3s1)CCNC2 [compound 308]	pIC50	> 6.52
O=C(CCNCc1c[nH]cn1)Nc1sc2c(c1-c1nc3ccccc3s1)CCNC2 [Compound 190]	pIC50	> 6.52
CC(C)CNCCC(=O)Nc1sc2c(c1-c1nc3ccccc3s1)CCN(C(C)C)C2 [Compound 552]	pIC50	> 6.52
CCC(C)NCCC(=O)Nc1sc2c(c1-c1nc3ccccc3s1)CCN(C1COC1)C2 (centres unmarked) [Compound 137]	pIC50	5.00 to 6.00
CC(C)NCCC(=O)Nc1sc2c(c1-c1nc3cc(C(=O)N(C)C)ccc3s1)CCNC2 [Compound 322]	pIC50	6.00 to 6.52

Continue with the next compound.
Entry CN(C)CCC(=O)Nc1sc2c(c1-c1nc3ccccc3s1)CCNC2 [Compound 130] ; assay system c-Myc/Max/Ebox DNA (Homo sapiens, UniProt P01106); pIC50 recorded at > 6.52

* * *

- TESTED ON: c-Myc/Max/Ebox DNA (Homo sapiens)
- Construct: his6 (cleaved yes)
- ASSAY TEXT: c-Myc/Max/Ebox DNA AlphaScreen Assay
- Format: binding
- MEASUREMENT CONDITIONS: Table 2, compounds of FIG. 1; calculated IC50 class
pIC50: −log10 of the molar value.
The entries below are paired with their reported pIC50.

Form: molecule = O=C(O)CCOCCOCCOCCOCCOCCOCCNCCC(=O)Nc1sc2c(c1-c1nc3ccccc3s1)CCNC2 ; pIC50 = > 6.52

Value of measured pIC50 for the entry CC[C@H](C)NCCC(=O)Nc1sc2c(c1-c1nc3ccccc3s1)CCNC2 : 6.00 to 6.52

Kindly note the recorded pIC50 for COCCNCCC(=O)Nc1sc2c(c1-c1nc3cc(-c4ccc(C(=O)OC)nc4)ccc3s1)CCNC2 , which is > 6.52

// COCCNCCC(=O)Nc1sc2c(c1-c1nc3cc(-c4cnn(C(C)C)c4)ccc3s1)CCNC2 : pIC50 value = > 6.52

* * *

- TESTED ON: c-Myc/Max/Ebox DNA (Homo sapiens, UniProt P01106)
- Construct: his6 (cleaved yes)
- ASSAY TEXT: c-Myc/Max/Ebox DNA AlphaScreen Assay
- Assay type: binding
- MEASUREMENT CONDITIONS: Table 2, compounds of FIG. 1; calculated IC50 class
Structures can show the parent of a compound that is named as a salt.
EXPERIMENTAL READOUT: IC50

Known IC50 results, listed for orientation:
COMPOUND	TESTED ON	IC50
CC[C@H](C)NCCC(=O)Nc1sc2c(c1-c1nc3cc(C(F)(F)F)ccc3s1)CC(C)NC2C (single isomer, unassigned) [Compound 585]	c-Myc/Max/Ebox DNA (Homo sapiens, UniProt P01106)	< 300 nM
CC(C)NCCC(=O)Nc1sc2c(c1-c1nc3cc(C(=O)N4CCN(C)CC4)ccc3s1)CCNC2	c-Myc/Max/Ebox DNA (Homo sapiens, UniProt P01106)	300 to 1000 nM
COCCNCCC(=O)Nc1sc2c(c1-c1nc3cc(-c4cccnc4)ccc3s1)CC(C)NC2C (centres unmarked) [Compound 533]	c-Myc/Max/Ebox DNA (Homo sapiens, UniProt P01106)	1000 to 10000 nM
COCCNCCC(=O)Nc1sc2c(c1-c1nc3cc(-c4cccnc4)ccc3s1)CC(C)NC2C (single isomer, unassigned) [Compound 526]	c-Myc/Max/Ebox DNA (Homo sapiens, UniProt P01106)	1000 to 10000 nM
CCC(C)NCCC(=O)Nc1sc2c(c1-c1nc3cc(C)c(C)cc3s1)CCNC2 (centres unmarked)	c-Myc/Max/Ebox DNA (Homo sapiens, UniProt P01106)	< 300 nM
CC(C)NCCC(=O)Nc1sc2c(c1-c1nc3cc(NS(C)(=O)=O)ccc3s1)CCNC2	c-Myc/Max/Ebox DNA (Homo sapiens, UniProt P01106)	< 300 nM

Form field IC50, entry CC(C)NCCC(=O)Nc1sc2c(c1-c1nc3ccccc3s1)CCN(C(C)C)C2 : 300 to 1000 nM

Lab note: CC[C@H](C)NCCC(=O)Nc1sc2c(c1-c1nc3cc(C(F)(F)F)ccc3s1)CC(C)NC2C (single isomer, unassigned) [Compound 587] gave IC50 of > 10000 nM

Form: compound = COCCNCCC(=O)Nc1sc2c(c1-c1nc3c(-n4cnc(C)c4)cccc3s1)CCNC2 [Compound 592, trihydrochloride] ; IC50 = < 300 nM

* * *

- TESTED ON: c-Myc/Max/Ebox DNA (Homo sapiens)
- Construct: his6 (cleaved yes)
- ASSAY TEXT: c-Myc/Max/Ebox DNA AlphaScreen Assay
- Type: binding
- MEASUREMENT CONDITIONS: Table 3, compounds of FIG. 2; calculated IC50 class
pIC50: −log10 of the molar value.
EXPERIMENTAL READOUT: pIC50

Look over these answered cases.
MOLECULE	TESTED ON	REPORTED VALUE
CC(=O)Nc1sc2c(c1-c1nc3ccccc3s1)CCC(NC(C)=O)C2 (stereo not drawn)	c-Myc/Max/Ebox DNA (Homo sapiens)	< 5.00
CC(=O)Nc1sc2c(c1-c1nc3ccccc3s1)CCC(NC1CCNCC1)C2 (stereo not drawn)	c-Myc/Max/Ebox DNA (Homo sapiens)	< 5.00
CC(=O)Nc1sc2c(c1-c1nc3ccccc3s1)CCNC2C(F)(F)F (stereo not drawn)	c-Myc/Max/Ebox DNA (Homo sapiens)	< 5.00
CC(=O)Nc1sc2c(c1-c1nc3ccccc3s1)C(F)CNC2 (stereo not drawn)	c-Myc/Max/Ebox DNA (Homo sapiens)	< 5.00
CCN1CCc2c(sc(NC(C)=O)c2-c2nc3ccccc3s2)C1	c-Myc/Max/Ebox DNA (Homo sapiens)	5.00 to 6.00
COC(=O)c1ccc2sc(-c3c(NC(C)=O)sc4c3CCNC4)nc2c1	c-Myc/Max/Ebox DNA (Homo sapiens)	6.00 to 6.52
CC(=O)Nc1sc2c(c1-c1nc3ccccc3s1)CCC(NC1CCN(C(=O)OC(C)(C)C)CC1)C2 (stereo not drawn)	c-Myc/Max/Ebox DNA (Homo sapiens)	< 5.00
CC(=O)Nc1sc2c(c1-c1nc3ccccc3s1)CCN(C(C)C)C2C (stereo not drawn)	c-Myc/Max/Ebox DNA (Homo sapiens)	< 5.00

Now look at this entry.
Lab note: measured pIC50 of CC(=O)Nc1sc2c(c1-c1nc3ccccc3s1)CCC(NC1CCOCC1)C2 (stereo not drawn) was 5.00 to 6.00
